# System under test: Recombinant human HSD17B13 (Homo sapiens (Human), UniProt Q7Z5P4)
# Sequence (Q7Z5P4 20-300): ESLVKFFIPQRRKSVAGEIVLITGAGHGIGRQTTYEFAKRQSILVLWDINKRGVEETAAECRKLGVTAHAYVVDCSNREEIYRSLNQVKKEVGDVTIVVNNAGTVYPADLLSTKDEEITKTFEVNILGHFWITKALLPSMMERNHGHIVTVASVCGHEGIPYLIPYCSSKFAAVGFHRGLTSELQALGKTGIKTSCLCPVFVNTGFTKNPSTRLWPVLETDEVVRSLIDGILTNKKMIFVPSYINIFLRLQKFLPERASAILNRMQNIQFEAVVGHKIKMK
# Experimental details: HSD17B13 rapid-fire mass spectrometry assay (RF/MS assay)
# Condition set: inhibition of HSD17B13; LTB4 10 μM, NAD+ 0.5 mM, RT 3 h; IC50 ranges A-E
pIC50: −log10 of the molar value.
Quantity measured: pIC50

Solved entries:
COc1cc(C(=O)O)cc(F)c1NS(=O)(=O)c1csc(-c2ccc(C3CCC(C)(C)CC3)cc2C(F)(F)F)n1 | > 7.00
COc1cc(C(=O)O)c(F)cc1NS(=O)(=O)c1cc(-c2ccc([C@H]3CC[C@H](C(F)(F)F)CC3)cc2)ccn1 | 6.30 to 7.00
COc1cc(C(=O)O)ccc1NS(=O)(=O)c1coc(-c2ccc([C@H]3CC[C@@H](C(F)(F)F)CC3)cc2)n1 | > 7.00

Q: Observed pIC50 on Recombinant human HSD17B13 (Homo sapiens (Human), UniProt Q7Z5P4) for O=C(O)c1cc(F)c(NS(=O)(=O)c2cnc(-c3ccc(F)cc3)s2)c(F)c1 , please.
Result: 6.30 to 7.00

Q: Fill in the recorded pIC50 for this compound, with Recombinant human HSD17B13 (Homo sapiens (Human), UniProt Q7Z5P4) as test system: CCCCOc1c(C2=CCC(C(C)C)CC2)ccc(-c2nc(S(=O)(=O)Nc3cc(F)c(C(=O)O)cc3OC)cs2)c1F (stereo not shown)
Result: 6.30 to 7.00

Q: Short answer please: pIC50, Recombinant human HSD17B13 (Homo sapiens (Human), UniProt Q7Z5P4), entry COc1cc(C(=O)O)ccc1NS(=O)(=O)c1ccc(C2=CCC3(CC2)OCCO3)cc1F
Result: 6.30 to 7.00

Q: Recall the recorded pIC50 for COc1cccc(-c2nc(S(=O)(=O)Nc3ccc(C(=O)O)cc3OC)cs2)c1 with Recombinant human HSD17B13 (Homo sapiens (Human), UniProt Q7Z5P4) and state it.
Result: 6.00 to 6.30

----------
# System under test: Recombinant human HSD17B13 (Homo sapiens (Human))
# Experimental details: HSD17B13 rapid-fire mass spectrometry assay (RF/MS assay)
# Condition set: inhibition of HSD17B13; LTB4 10 μM, NAD+ 0.5 mM, RT 3 h; IC50 ranges A-E
# Procedure: HSD17B13 rapid-fire mass spectrometry assay (RF/MS assay). Recombinant human HSD17B13 was expressed and purified from sf9 cells at Charles River Labs (Saffron Walden, UK). […] Leukotriene B4 (335.3) and 12-oxoLeukotriene B4 (333.3) SRM transitions were optimized with Discovery Quant software and extracted ion counts for these analytes were determined. […] By using above method, the inhibition of HSD17B13 was evaluated for the compounds of Formula (I). […]
Below is a list of entries, each paired with its recorded IC50 value.

COc1cc(C(=O)O)ccc1NS(=O)(=O)c1ccc(-c2ccccc2OC)s1 | 100 to 500 nM
O=C(O)c1ccc(NS(=O)(=O)c2cnc(-c3ccc(F)cc3)s2)c2ccccc12 | 1000 to 100000 nM
COc1cc(C(=O)O)c(F)cc1NS(=O)(=O)c1coc(-c2ccc([C@H]3CC[C@H](C(F)(F)F)CC3)cc2)n1 | < 100 nM

Let us move to another entry and its IC50.
Q: Given O=C(O)c1ccc(NS(=O)(=O)c2cnc(-c3ccc(F)cc3)s2)c(F)c1F , state its recorded IC50.
Result: 100 to 500 nM
